- assayDetails: In vivo oral absorption screen / pharmacokinetic assay in the rat
- statedConditions: male, Sprague Dawley, rat plasma, dose of 5 mg/kg in Methocel:Tween20 (0.5%:0.3%), read-out: area under the curve (AUC)
measurementType: AUC (µM·h)

Query: AUC; subject: COc1ccc2c(O[C@@H]3C[C@H]4C(=O)N[C@]5(C(=O)O)C[C@H]5/C=C\CCCCC[C@H](NC(=O)OC5CCCC5)C(=O)N4C3)cc(-c3csc(NC4CCCCC4)n3)nc2c1 [Compound 102] 18

Check COc1ccc2c(O[C@@H]3C[C@H]4C(=O)N[C@]5(C(=O)O)C[C@H]5/C=C\CCCCC[C@H](NC(=O)OC5CCCC5)C(=O)N4C3)cc(-c3csc(NC4CCCC4)n3)nc2c1 [Compound 101] too. 16

These entries and their values trace back to patent US7119072B2.
